Procedure Details: Log P
Protocol Conditions: Log P (min), Table I
Please provide measured chromatographic logP for the entries that follow.

| Compound | Measured Property | Value Measured |
| --- | --- | --- |
| CC(C)(N)C(=O)N[C@H](Cc1c[nH]c2ccccc12)C(=O)N1CCCC(N(c2ccccc2)S(=O)(=O)c2ccccc2)C1 (single isomer, unassigned) [3b] | chromatographic logP | 3.2 |

We next turn to a different compound, shown below.
Task: Dear colleague, I am looking for the recorded chromatographic logP of the following compound: CC(C)(N)C(=O)N[C@H](Cc1c[nH]c2ccccc12)C(=O)N1CCCC(N(Cc2ccccc2)S(=O)(=O)c2ccccc2)C1 (some centres unmarked) [3a]
Result: 3.6
